# Anti-CD28 Fab (SEQ ID NOs: 202, 203) signal listing for each entry below
# tested-target: T1, anti-CD28 Fab (SEQ ID NOs: 202, 203)
# T1 construct: biotinylated and captured on neutravidin coated plates in the phage ELISA
# T1 sequence (VH, as listed by the source, chain 1 of 2): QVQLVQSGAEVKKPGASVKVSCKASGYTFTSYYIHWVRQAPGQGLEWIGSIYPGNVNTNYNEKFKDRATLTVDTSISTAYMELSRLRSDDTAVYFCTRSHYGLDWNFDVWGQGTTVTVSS
# T1 sequence (VL, as listed by the source, chain 2 of 2): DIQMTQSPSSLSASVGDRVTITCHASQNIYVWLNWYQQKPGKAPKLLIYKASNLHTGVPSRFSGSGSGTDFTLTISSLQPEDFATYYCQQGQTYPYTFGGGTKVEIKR
# assay-overview: phage binding ELISA on captured biotinylated Fab;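 also: clonal phage supernatants added to wells preincubated with CD28 antigen or blocking buffer only, bound phage detected by ELISA with horseradish-conjugated anti-M13 antibody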
Lab note: record the figure alone, no unit after it.

binder="QCSAGAAWPWPFCL [Phage-976]" observed_result=1.97
binder="NCSAGATYPWPLCL [Phage-934]" observed_result=2.17
binder="TCSAGAYYTWPYCF [Phage-948]" observed_result=2.09

Entry MCSAGAMYKWPLCL [Phage-912] needs its Anti-CD28 Fab (SEQ ID NOs: 202, 203) signal filled in; supply it.
2.32
